- Tested on: Estrogen receptor (Homo sapiens, UniProt P03372); further: in other assays of this panel Not Active means under 50% inhibition at 10 µM
- Sequence (P03372 whole entry): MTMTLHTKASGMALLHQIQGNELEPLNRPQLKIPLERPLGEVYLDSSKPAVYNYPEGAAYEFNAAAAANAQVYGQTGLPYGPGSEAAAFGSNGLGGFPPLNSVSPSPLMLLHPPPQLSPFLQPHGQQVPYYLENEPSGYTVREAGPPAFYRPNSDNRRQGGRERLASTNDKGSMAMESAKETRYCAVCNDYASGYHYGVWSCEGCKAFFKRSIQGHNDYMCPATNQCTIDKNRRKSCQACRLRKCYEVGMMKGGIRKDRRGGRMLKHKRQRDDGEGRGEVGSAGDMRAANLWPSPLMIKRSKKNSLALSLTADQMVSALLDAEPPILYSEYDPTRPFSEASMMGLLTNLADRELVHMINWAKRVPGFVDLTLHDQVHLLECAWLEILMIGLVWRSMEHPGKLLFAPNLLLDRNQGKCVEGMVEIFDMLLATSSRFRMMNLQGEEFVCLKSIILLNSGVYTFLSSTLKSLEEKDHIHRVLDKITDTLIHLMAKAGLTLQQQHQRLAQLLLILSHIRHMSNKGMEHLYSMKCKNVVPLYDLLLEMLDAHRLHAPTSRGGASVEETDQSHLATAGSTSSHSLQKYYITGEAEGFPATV
- Assay name: biochemical
Observation type: Ki

Input line: Record request: Ki value, item CCCCCCCCCc1ccc(O)cc1
Output line: 0.108 µM

----------
- Tested on: Estrogen receptor (Homo sapiens); further: in other assays of this panel Not Active means under 50% inhibition at 10 µM
- Assay name: biochemical
Observation type: pIC50
One number for each entry, as −log10 of the molar value.

Input line: Record request: pIC50 value, item CCCCCCCCCc1ccc(O)cc1
Output line: 6.42

----------
- Assay name: DRUGMATRIX: ATPase, Na+/K+ enzyme inhibition (substrate: ATP)
- Format: tissue-based, Sus scrofa, Heart
- Recorded conditions: Not Active = under 50% inhibition at 10 µM; read-out: IC50
Observation type: pIC50
One number for each entry, as −log10 of the molar value.

{"Compound": "Oc1c(Cl)cc(Cl)cc1Sc1cc(Cl)cc(Cl)c1O", "pIC50": 5.30}

// switching to the query compound
Input line: Record request: pIC50 value, item CC(=O)O[C@]1(C(C)=O)CC[C@H]2[C@@H]3C=C(Cl)C4=CC(=O)CC[C@]4(C)[C@H]3CC[C@@]21C [CHLORMADINONE ACETATE]
Output line: 5.34

----------
Please go through the items and note down their pKi.
- Assay name: DRUGMATRIX: GABAA, Chloride Channel, TBOB radioligand binding (ligand: [3H] TBOB)
- Format: cell membranes, Rattus norvegicus, Wistar, Cerebral cortex, Membrane
- Recorded conditions: Not Active = under 50% inhibition at 10 µM; read-out: Ki
Give bare numbers, as −log10 of the molar value.

{"Input smiles": "C=C(C)[C@@H]1[C@H]2OC(=O)[C@@H]1[C@]1(O)C[C@H]3O[C@]34C(=O)O[C@H]2[C@]14C", "Quantitative result": 6.48}

// switching to the query compound
Input line: Record request: pKi value, item CC(=O)[C@H]1CC[C@H]2[C@@H]3CCC4=CC(=O)CC[C@]4(C)[C@H]3CC[C@]12C
Output line: 4.65

----------
- Tested on: Mitogen-activated protein kinase 3 (Homo sapiens, UniProt P27361)
- Sequence (P27361 whole entry): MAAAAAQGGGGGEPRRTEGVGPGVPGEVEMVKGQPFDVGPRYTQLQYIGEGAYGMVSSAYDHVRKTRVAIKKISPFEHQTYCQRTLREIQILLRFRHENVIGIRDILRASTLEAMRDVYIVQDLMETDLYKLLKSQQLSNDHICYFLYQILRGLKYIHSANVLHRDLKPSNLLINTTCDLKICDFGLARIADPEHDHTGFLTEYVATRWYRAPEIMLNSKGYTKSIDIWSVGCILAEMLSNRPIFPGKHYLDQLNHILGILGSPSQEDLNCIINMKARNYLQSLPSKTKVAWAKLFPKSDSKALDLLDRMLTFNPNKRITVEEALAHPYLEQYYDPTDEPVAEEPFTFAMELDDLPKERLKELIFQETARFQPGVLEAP
- Assay name: DRUGMATRIX: Protein Serine/Threonine Kinase, ERK1 enzyme inhibition (substrate: Myelin Basic Protein)
- Parameters: species or system Escherichia coli
- Recorded conditions: Not Active = under 50% inhibition at 10 µM
Observation type: IC50

{"Compound": "CC(C)(C)NC(=O)[C@@H]1CN(Cc2cccnc2)CCN1C[C@@H](O)C[C@@H](Cc1ccccc1)C(=O)N[C@H]1c2ccccc2C[C@H]1O.O", "IC50": "Not Active"}
{"Compound": "CC1(C)[C@@H](O[C@H]2O[C@H](C(=O)O)[C@@H](O)[C@H](O)[C@H]2O[C@@H]2O[C@H](C(=O)O)[C@@H](O)[C@H](O)[C@H]2O)CC[C@]2(C)[C@H]3C(=O)C=C4[C@@H]5C[C@@](C)(C(=O)O)CC[C@]5(C)CC[C@@]4(C)[C@]3(C)CC[C@@H]12 [GLYCYRRHIZIN]", "IC50": "Not Active"}
{"Compound": "O=[N+]([O-])c1cc([As](=O)(O)O)ccc1O [ROXARSONE]", "IC50": "Not Active"}
{"Compound": "Nc1ccc(S(=O)(=O)Nc2ccnn2-c2ccccc2)cc1 [SULFAPHENAZOLE]", "IC50": "Not Active"}
{"Compound": "CC(/C=C1\\SC(=S)N(CC(=O)O)C1=O)=C\\c1ccccc1", "IC50": "Not Active"}
{"Compound": "CCCc1cc(=O)[nH]c(=S)[nH]1 [PROPYLTHIOURACIL]", "IC50": "Not Active"}

// switching to the query compound
Input line: Record request: IC50 value, item C[C@](N)(Cc1ccc(O)cc1)C(=O)O [METYROSINE]
Output line: Not Active

The measurements presented in this section are drawn from ChEMBL document CHEMBL1909046.
